EXPERIMENTAL TARGET: 5-hydroxytryptamine receptor 1A (Homo sapiens, UniProt P08908); also: assay procedure not described here
Sequence (P08908 whole entry): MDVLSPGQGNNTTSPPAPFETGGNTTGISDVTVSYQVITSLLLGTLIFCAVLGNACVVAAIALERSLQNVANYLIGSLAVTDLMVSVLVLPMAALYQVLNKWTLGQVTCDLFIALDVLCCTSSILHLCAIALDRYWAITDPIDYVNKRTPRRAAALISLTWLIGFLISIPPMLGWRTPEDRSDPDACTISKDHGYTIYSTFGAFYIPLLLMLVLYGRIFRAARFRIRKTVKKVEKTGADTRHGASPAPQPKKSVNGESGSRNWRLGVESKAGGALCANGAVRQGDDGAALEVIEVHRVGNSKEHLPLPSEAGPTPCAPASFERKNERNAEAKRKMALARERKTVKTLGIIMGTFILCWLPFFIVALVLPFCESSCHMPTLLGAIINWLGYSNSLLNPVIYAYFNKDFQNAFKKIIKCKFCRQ
Assay type: functional, cell-based

COMPOUND | AC50
CNCCC=C1c2ccccc2CCc2ccccc21 | 8 µM
CCC(=O)O[C@@H](O[P@](=O)(CCCCc1ccccc1)CC(=O)N1C[C@H](C2CCCCC2)C[C@H]1C(=O)O)C(C)C | > 30 µM
CC(=O)OCC(CCn1cnc2cnc(N)nc21)COC(C)=O | > 10 µM
CCCC(C)(COC(N)=O)COC(=O)NC(C)C (stereo not given) | > 10 µM
O=c1oc2ccccc2c(O)c1Cc1c(O)c2ccccc2oc1=O | > 10 µM

###

EXPERIMENTAL TARGET: 5-hydroxytryptamine receptor 1A (Homo sapiens); also: assay procedure not described here
Type: functional, cell-based
Listed next: entries and their corresponding AC50.

MOLECULE | AC50
COC(=O)[C@H](c1ccccc1Cl)N1CCc2sccc2C1 | > 30 µM
C#Cc1cccc(Nc2ncnc3cc(OCCOC)c(OCCOC)cc23)c1 | > 30 µM
CC(=N)N1CC[C@H](SC2=C(C(=O)O)N3C(=O)[C@H]([C@@H](C)O)[C@H]3C2)C1 | > 300 µM
Cc1cc(CC(=O)O)n(C)c1C(=O)c1ccc(Cl)cc1 [ZOMEPIRAC] | > 30 µM
COCCOC(=O)C1=C(C)NC(C)=C(C(=O)OC/C=C/c2ccccc2)C1c1cccc([N+](=O)[O-])c1 (stereo unspecified) | > 30 µM
N[C@H](Cc1cc(I)c(Oc2cc(I)c(O)c(I)c2)c(I)c1)C(=O)O | 8.2 µM
CC(C)(C)NC[C@H](O)COc1nsnc1N1CCOCC1 | 4.2 µM
Nc1nc2c(c(=O)[nH]1)N(C=O)C(CNc1ccc(C(=O)N[C@@H](CCC(=O)O)C(=O)O)cc1)CN2 (stereo partly specified) | > 30 µM
CC(/C=C1\SC(=S)N(CC(=O)O)C1=O)=C\c1ccccc1 | 21 µM
CCCN(CCc1cccs1)[C@H]1CCc2c(O)cccc2C1 | 0.67 µM
Clc1cccc(Cl)c1N=C1NCCN1 | > 10 µM
CCn1cc(C(=O)O)c(=O)c2cc(F)c(N3CCN(C)CC3)cc21 | > 30 µM
CC(=O)/N=c1/sc(S(N)(=O)=O)nn1C [METHAZOLAMIDE] | > 10 µM
CCCCCCOC(=O)CCC(=O)CN [HEXAMINOLEVULINATE] | > 30 µM
COCCCOc1ccnc(C[S+]([O-])c2nc3ccccc3[nH]2)c1C (stereo unspecified) | > 10 µM
CO[C@@]1(NC(=O)Cc2cccs2)C(=O)N2C(C(=O)O)=C(COC(N)=O)CS[C@@H]21 | > 30 µM
CS(=O)(=O)OCCCCOS(C)(=O)=O | > 30 µM
CC[N+]1(C)CCCC(OC(=O)C(O)(c2ccccc2)c2ccccc2)C1 (stereo unspecified) [PIPENZOLATE] | > 30 µM
NC(=O)CCC/N=C(\c1ccc(Cl)cc1)c1cc(F)ccc1O [PROGABIDE] | > 10 µM
CCCCC1(CC)C(=O)NC(=O)NC1=O | > 30 µM
CCN(CC)CCOC(=O)c1ccc(N)cc1Cl | > 30 µM
CC1(C)S[C@@H]2[C@H](NC(=O)[C@H](N)c3ccc(O)cc3)C(=O)N2[C@H]1C(=O)O | > 10 µM
C#C[C@]1(O)CC[C@H]2[C@@H]3CCC4=CC(=O)CCC4=C3C=C[C@@]21CC | > 30 µM
CN1c2ccccc2C(NCCCCCCC(=O)O)c2ccc(Cl)cc2S1(=O)=O (stereo unspecified) | > 30 µM
CNC(=O)Oc1ccc2c(c1)[C@]1(C)CCN(C)[C@@H]1N2C | > 30 µM
C=C(C)[C@@H]1CCC(C)=C[C@H]1c1c(O)cc(CCCCC)cc1O | > 10 µM
COc1ccnc(C[S+]([O-])c2nc3ccc(OC(F)F)cc3[nH]2)c1OC (stereo unspecified) | > 10 µM
OCCN1CCN(CC/C=C2/c3ccccc3Sc3ccc(Cl)cc32)CC1 | 6.4 µM
CCN(CC)C(=O)C1(c2ccccc2)CC1CN (stereo unspecified) | > 30 µM
C#C[C@]1(O)CC[C@H]2[C@@H]3CCc4cc(OC)ccc4[C@H]3CC[C@@]21C | > 10 µM
CC[C@H]1OC(=O)[C@H](C)[C@@H](O[C@H]2C[C@@](C)(OC)[C@@H](O)[C@H](C)O2)[C@H](C)[C@@H](O[C@@H]2O[C@H](C)C[C@H](N(C)C)[C@H]2O)[C@](C)(O)C[C@@H](C)/C(=N\OCOCCOC)[C@H](C)[C@@H](O)[C@]1(C)O | > 30 µM
COc1cc(OC)c(C(=O)CCCN2CCCC2)c(OC)c1 | 29 µM
NS(=O)(=O)c1cc(C(=O)O)cc(N2CCCC2)c1Oc1ccccc1 [PIRETANIDE] | > 30 µM
Oc1c(I)cc(Cl)c2cccnc12 | > 30 µM
CC1(C)O[C@@H]2[C@@H](CO[C@@]3(COS(N)(=O)=O)OC(C)(C)O[C@@H]23)O1 [TOPIRAMATE] | > 10 µM
CC(=O)O[C@H]1C[C@@H]2CC[C@@H]3[C@H](CC[C@@]4(C)[C@H]3C[C@H]([N+]3(C)CCCCC3)[C@@H]4OC(C)=O)[C@@]2(C)C[C@@H]1[N+]1(C)CCCCC1 | > 10 µM

###

EXPERIMENTAL TARGET: 3',5'-cyclic-AMP phosphodiesterase 4A (Homo sapiens); also: assay procedure not described here
Sequence (P27815 whole entry): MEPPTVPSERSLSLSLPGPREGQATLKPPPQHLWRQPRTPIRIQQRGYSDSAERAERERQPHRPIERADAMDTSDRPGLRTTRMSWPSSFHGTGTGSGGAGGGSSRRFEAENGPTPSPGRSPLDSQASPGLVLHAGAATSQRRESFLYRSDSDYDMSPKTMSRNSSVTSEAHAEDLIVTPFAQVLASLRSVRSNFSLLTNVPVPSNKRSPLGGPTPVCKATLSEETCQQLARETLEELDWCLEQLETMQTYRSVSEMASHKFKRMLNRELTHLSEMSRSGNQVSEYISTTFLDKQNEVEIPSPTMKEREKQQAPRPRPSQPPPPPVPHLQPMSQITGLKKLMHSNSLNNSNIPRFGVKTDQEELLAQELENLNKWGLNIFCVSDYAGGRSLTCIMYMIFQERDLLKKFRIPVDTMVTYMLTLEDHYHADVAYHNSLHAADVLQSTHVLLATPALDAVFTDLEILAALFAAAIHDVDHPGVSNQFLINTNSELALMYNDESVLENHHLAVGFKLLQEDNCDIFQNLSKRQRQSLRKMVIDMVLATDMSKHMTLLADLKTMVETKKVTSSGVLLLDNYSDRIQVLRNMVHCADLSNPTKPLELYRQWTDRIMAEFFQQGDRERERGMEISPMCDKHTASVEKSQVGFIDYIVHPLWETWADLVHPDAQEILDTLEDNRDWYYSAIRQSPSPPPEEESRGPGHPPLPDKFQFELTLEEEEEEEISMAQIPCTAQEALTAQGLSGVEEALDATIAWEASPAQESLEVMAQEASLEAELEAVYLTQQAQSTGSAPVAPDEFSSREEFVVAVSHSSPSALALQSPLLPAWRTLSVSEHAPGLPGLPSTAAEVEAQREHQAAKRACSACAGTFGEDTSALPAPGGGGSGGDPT
Type: functional
MEASURED PARAMETER: AC50

COMPOUND | MEASURED PARAMETER | RESULT
C[C@]12CCC(=O)C=C1CC[C@@H]1[C@@H]2[C@@H](O)C[C@@]2(C)[C@H]1CC[C@]2(O)C(=O)COC(=O)CCC(=O)O [HYDROCORTISONE HEMISUCCINATE ANHYDROUS] | AC50 | > 30 µM
CNC(=O)C[C@@H](N)C(=O)N[C@@H](C(=O)N[C@@H]1C(=O)N2[C@@H]1SC(C)(C)[C@@H]2C(=O)O)c1ccc(O)cc1 [ASPOXICILLIN] | AC50 | > 30 µM
O=C(O)COc1nn(Cc2ccccc2)c2ccccc12 [BENDAZAC] | AC50 | > 30 µM

###

# AC50 measurements, system: Neuronal acetylcholine receptor subunit alpha-4 (Homo sapiens, UniProt P43681); also: assay procedure not described here
# Sequence (P43681 whole entry): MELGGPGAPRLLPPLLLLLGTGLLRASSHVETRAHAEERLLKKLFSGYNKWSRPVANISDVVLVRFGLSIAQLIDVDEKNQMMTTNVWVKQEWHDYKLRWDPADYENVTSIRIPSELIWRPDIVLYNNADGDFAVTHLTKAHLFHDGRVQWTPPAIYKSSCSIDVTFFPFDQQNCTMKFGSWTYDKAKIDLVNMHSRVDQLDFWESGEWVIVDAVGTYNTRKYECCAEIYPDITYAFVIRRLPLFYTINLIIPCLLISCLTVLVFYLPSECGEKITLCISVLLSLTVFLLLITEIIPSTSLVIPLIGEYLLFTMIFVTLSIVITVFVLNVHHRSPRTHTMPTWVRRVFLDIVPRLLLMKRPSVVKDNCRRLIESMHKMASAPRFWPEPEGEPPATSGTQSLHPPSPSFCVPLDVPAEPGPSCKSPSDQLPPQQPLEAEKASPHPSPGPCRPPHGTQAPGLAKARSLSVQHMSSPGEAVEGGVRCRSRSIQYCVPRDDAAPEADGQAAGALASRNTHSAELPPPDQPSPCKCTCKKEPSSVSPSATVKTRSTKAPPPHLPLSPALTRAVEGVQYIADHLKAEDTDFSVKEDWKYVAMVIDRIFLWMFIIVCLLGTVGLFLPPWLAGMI

MOLECULE | AC50
CC(/C=C1\SC(=S)N(CC(=O)O)C1=O)=C\c1ccccc1 | 28 µM
Cc1cnc(NC(=O)C2=C(O)c3ccccc3S(=O)(=O)N2C)s1 [MELOXICAM] | > 10 µM
CC1(C)O[C@@H]2C[C@H]3[C@@H]4C[C@H](F)C5=CC(=O)C=C[C@]5(C)[C@H]4[C@@H](O)C[C@]3(C)[C@]2(C(=O)CO)O1 [FLUNISOLIDE] | > 30 µM
CO[C@@]1(NC(=O)Cc2cccs2)C(=O)N2C(C(=O)O)=C(COC(N)=O)CS[C@@H]21 [CEFOXITIN] | > 30 µM
CCCCNc1ccc(C(=O)OCCN(C)C)cc1 [TETRACAINE] | > 10 µM
CCn1cc(C(=O)O)c(=O)c2cc(F)c(N3CCNCC3)nc21 [ENOXACIN] | > 10 µM
CN1C[C@H](C(=O)N[C@]2(C)O[C@@]3(O)[C@@H]4CCCN4C(=O)[C@H](Cc4ccccc4)N3C2=O)C[C@@H]2c3cccc4[nH]cc(c34)C[C@H]21 [DIHYDROERGOTAMINE] | > 10 µM
CN1CCN(c2c(F)cc3c(=O)c(C(=O)O)cn4c3c2SCC4)CC1 [RUFLOXACIN] | > 30 µM

###

EXPERIMENTAL TARGET: UniProtKB P03372
Sequence (P03372 whole entry): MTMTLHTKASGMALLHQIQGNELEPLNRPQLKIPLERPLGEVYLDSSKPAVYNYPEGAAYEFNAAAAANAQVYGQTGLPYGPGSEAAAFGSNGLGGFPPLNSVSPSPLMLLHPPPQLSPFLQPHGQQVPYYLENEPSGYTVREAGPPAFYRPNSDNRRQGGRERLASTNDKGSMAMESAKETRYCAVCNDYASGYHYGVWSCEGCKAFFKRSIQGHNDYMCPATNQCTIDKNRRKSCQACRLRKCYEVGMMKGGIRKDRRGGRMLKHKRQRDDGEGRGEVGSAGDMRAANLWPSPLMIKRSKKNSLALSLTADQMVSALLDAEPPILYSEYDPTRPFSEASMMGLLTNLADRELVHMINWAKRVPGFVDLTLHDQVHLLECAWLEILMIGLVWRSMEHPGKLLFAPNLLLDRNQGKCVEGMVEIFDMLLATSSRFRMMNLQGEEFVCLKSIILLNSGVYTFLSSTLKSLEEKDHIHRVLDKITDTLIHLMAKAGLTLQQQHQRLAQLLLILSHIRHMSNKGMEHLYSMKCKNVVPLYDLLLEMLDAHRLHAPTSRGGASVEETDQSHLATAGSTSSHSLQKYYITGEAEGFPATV
MEASURED PARAMETER: AC50

COMPOUND | MEASURED PARAMETER | RESULT
O=C(Oc1ccccc1C(=O)O)c1ccccc1O [SALSALATE] | AC50 | > 30 µM
CO/N=C(\C(=O)N[C@@H]1C(=O)N2C(C(=O)[O-])=C(C[n+]3cccc4c3CCC4)CS[C@H]12)c1csc(N)n1 | AC50 | > 30 µM
C1CNCCN1 | AC50 | > 30 µM
CNC(=O)C[C@@H](N)C(=O)N[C@@H](C(=O)N[C@@H]1C(=O)N2[C@@H]1SC(C)(C)[C@@H]2C(=O)O)c1ccc(O)cc1 | AC50 | > 30 µM
CCn1cc(C(=O)O)c(=O)c2cc(F)c(N3CCNCC3)nc21 | AC50 | > 30 µM
CC(=O)/N=c1/sc(S(N)(=O)=O)nn1C [METHAZOLAMIDE] | AC50 | > 30 µM
C#Cc1cccc(Nc2ncnc3cc(OCCOC)c(OCCOC)cc23)c1 | AC50 | > 30 µM
CC(C)(N)C(=O)N[C@H](Cc1c[nH]c2ccccc12)C(=O)N[C@H](Cc1c[nH]c2ccccc12)NC=O | AC50 | > 30 µM
CCOC(=O)[C@H](CCc1ccccc1)N[C@@H](C)C(=O)N1Cc2cc(OC)c(OC)cc2C[C@H]1C(=O)O | AC50 | > 30 µM

Where do these numbers come from? They come from ChEMBL document CHEMBL5291721.
